Overview of reported Cmax across a group of compounds:
Assay: Cmax in retina of Brown Norway rat administered 0.3% suspension using 4 uL topical drop to both eyes every 3 hrs for 9 hrs over 10 days and single drop to each eye on day 11 by LC-MS/MS analysis
Format: ADME
Settings: topical or ocular, 4 uL of 0.3% suspension per eye
Answer format: numeric, nM implied, no suffix.

INSERT INTO measurements (smilesrepr, measuredquantity, u, measurement) VALUES
  ('CC(=O)N1Cc2ncnc(Oc3ccc4c(ccn4C(=O)Nc4cc(C5CC5)on4)c3)c2C[C@@H]1C', 'Cmax', 'nM', 138);

Could you now consider this next compound?
[ask] Please give the measured Cmax for this compound: `CNCc1cc(Oc2ccc3c(ccn3C(=O)Nc3cc(C(F)(F)F)n(C)n3)c2)ncn1`
[reply] 1910

---

Experiment: Cmax in cynomolgus monkey plasma administered 0.5% suspension using 30 uL topical drop to both eyes as single dose by LC-MS/MS analysis
Type: ADME, Macaca fascicularis
Design: dose 30 uL, route ophthalmic
Details: topical or ocular, 30 uL of 0.5% suspension per eye
measuredQuantity: Cmax (nM)
Expressed in nM, but write only the number.

[ask] If you can, please state the reported Cmax value of `CC(=O)N1Cc2ncnc(Oc3ccc4c(ccn4C(=O)Nc4cc(C5CC5)on4)c3)c2C[C@@H]1C` .
[reply] 65.8

---

Assay: AUC (0 to last) in posterior eye cup of Brown Norway rat administered 0.3% suspension using 4 uL topical drop to both eyes every 3 hrs for 9 hrs over 10 days and single drop to each eye on day 11 by LC-MS/MS analysis
Type: ADME
Settings: topical or ocular, 4 uL of 0.3% suspension per eye
Here the recorded AUC(0-t) is given for each entry.
Please state the figure in µM·h; there is no need to write the unit.

INSERT INTO assay_data (smilesrepr, u, measurement) VALUES
  ('CC(=O)N1Cc2ncnc(Oc3ccc4c(ccn4C(=O)Nc4cc(C5CC5)on4)c3)c2C[C@@H]1C', 'µM·h', 29.5);

[ask] Give its AUC(0-t) value. Item: `CNCc1cc(Oc2ccc3c(ccn3C(=O)Nc3cc(C(F)(F)F)n(C)n3)c2)ncn1`
[reply] 515

---

Here, each record is paired with measured AUC(0-t) data.
Assay: AUC (0 to last) in plasma of Brown Norway rat administered 0.3% suspension using 4 uL topical drop to both eyes every 3 hrs for 9 hrs over 10 days and single drop to each eye on day 11 by LC-MS/MS analysis
Assay type: ADME
Settings: topical or ocular, 4 uL of 0.3% suspension per eye
Please give a number only; it is taken to be in µM·h.

INSERT INTO measurements (smilesrepr, measurement) VALUES
  ('CNCc1cc(Oc2ccc3c(ccn3C(=O)Nc3cc(C(F)(F)F)n(C)n3)c2)ncn1', 0.0244);

For the next question, use this compound.
[ask] Need AUC(0-t) of `CC(=O)N1Cc2ncnc(Oc3ccc4c(ccn4C(=O)Nc4cc(C5CC5)on4)c3)c2C[C@@H]1C` , thanks.
[reply] 0.923

---

Experiment: AUC (0 to 6 hrs) in cynomolgus monkey plasma administered 1% suspension using 30 uL topical drop to both eyes as single dose by LC-MS/MS analysis
Assay type: ADME, Macaca fascicularis
Design: time < 6 hr, dose 30 uL, route ophthalmic
Settings: topical or ocular, 30 uL of 1% suspension per eye
measuredQuantity: AUC(0-t) at 6 h (nM·h)
# number only, unit nM·h dropped from output

[ask] Can you share its AUC(0-t) at 6 h? I mean this compound: `CNCc1cc(Oc2ccc3c(ccn3C(=O)Nc3cc(C(F)(F)F)n(C)n3)c2)ncn1`
[reply] 22.7

Every entry's value here was drawn from ChEMBL document CHEMBL4052831.
